subject_of_test: T1, cynoSIRPα (NP_001271679), Extracellular Domain + His-Tag (cynomolgus monkey)
T1 construct: also called CySIRPα NP_001271679; not shown: His-Tag
T1 chain: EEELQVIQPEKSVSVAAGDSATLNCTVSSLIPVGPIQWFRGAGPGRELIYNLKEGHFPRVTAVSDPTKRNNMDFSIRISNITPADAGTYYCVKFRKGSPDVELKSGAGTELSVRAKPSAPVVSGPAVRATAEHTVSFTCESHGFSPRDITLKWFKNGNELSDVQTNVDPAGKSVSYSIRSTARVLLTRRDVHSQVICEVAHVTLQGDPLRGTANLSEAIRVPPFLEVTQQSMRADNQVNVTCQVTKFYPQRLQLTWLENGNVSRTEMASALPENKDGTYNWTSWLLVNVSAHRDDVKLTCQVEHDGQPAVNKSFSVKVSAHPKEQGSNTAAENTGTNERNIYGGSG
run_description: SPR, antibody captured on Protein A/G, ECD-His analyte, steady-state fit
// reported pKd for each item listed
The meaning of pKd here: minus log10 of the concentration in molar units.

{"binder": "Antibody A12 (antibody, human IgG1, kappa, L234A L235A, V domains shown) VH: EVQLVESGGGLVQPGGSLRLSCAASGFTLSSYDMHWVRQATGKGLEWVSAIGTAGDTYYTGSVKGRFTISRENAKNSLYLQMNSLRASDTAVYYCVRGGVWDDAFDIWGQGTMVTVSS VL: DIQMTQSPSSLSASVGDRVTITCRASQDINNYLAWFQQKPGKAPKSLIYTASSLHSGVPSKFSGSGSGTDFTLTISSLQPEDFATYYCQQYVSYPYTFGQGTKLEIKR", "pKd": 6.42}
{"binder": "Antibody A2 (antibody, human IgG1, kappa, L234A L235A, V domains shown) VH: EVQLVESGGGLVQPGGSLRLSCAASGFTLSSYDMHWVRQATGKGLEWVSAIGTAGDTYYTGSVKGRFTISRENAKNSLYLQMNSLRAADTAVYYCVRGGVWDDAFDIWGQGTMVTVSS VL: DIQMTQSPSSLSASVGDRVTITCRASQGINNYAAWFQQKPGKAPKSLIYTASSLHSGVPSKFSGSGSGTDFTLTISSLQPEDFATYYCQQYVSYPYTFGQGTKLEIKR", "pKd": 6.05}

Next binder, please.
// lookup pKd for Antibody A14 (antibody, human IgG1, kappa, L234A L235A, V domains shown) VH: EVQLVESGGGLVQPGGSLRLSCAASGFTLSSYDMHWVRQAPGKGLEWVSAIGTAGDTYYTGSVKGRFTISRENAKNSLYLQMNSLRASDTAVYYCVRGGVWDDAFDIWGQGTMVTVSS VL: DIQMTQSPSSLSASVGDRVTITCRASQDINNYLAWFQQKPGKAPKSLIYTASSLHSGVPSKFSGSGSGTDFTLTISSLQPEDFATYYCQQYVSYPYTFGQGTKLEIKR
6.50
